test system: BxPC-3 (human pancreatic cancer in situ); assay: In vitro inhibitory effect against human tumor cells (MTT or SRB); assay type: cell-based; conditions: BXPC-3, 72 h, BxPC-3, test method printed MTT (head: SRB), βGU-free, 3 days
pIC50: −log10 of the molar value.

# compound, pIC50
records = [
    ("CC[C@H](C)[C@@H]([C@@H](CC(=O)N1CCC[C@H]1[C@H](OC)[C@@H](C)C(=O)N[C@H](C)[C@@H](O)c1ccccc1)OC)N(C)C(=O)[C@@H](NC(=O)[C@H](C(C)C)[N+](C)(C)Cc1ccc(O[C@@H]2O[C@H](C(=O)[O-])[C@@H](O)[C@H](O)[C@H]2O)cc1OCc1cn(CCOCCC(=O)Nc2ccc(-c3ccc(/N=N/c4ccc5c(S(=O)(=O)[O-])cc(S(=O)(=O)[O-])c(N)c5c4O)c(C)c3)cc2C)nn1)C(C)C.[Na+].[Na+] [Example compound 9]", 7.55),
]

* * *

tested on: human ovarian cancer SK-OV-3; experiment: Biological Example 5: in vivo xenograft model of human ovarian cancer SK-OV-3; design: species or system Balb/c-nu nude mice; conditions: SK-OV-3 xenograft, nude mice, 0.8 mg/kg i.v. qw×3; End
Catalogue of molecules with associated Body weight (g, x±S.D.) End
measurement kind: Body weight (g, x±S.D.) End (g)

# molecule, test result
records = [
    ("CC[C@H](C)[C@@H]([C@@H](CC(=O)N1CCC[C@H]1[C@H](OC)[C@@H](C)C(=O)N[C@H](C)[C@@H](O)c1ccccc1)OC)N(C)C(=O)[C@@H](NC(=O)[C@H](C(C)C)[N+](C)(CC)Cc1ccc(O[C@@H]2O[C@H](C(=O)[O-])[C@@H](O)[C@H](O)[C@H]2O)cc1OCc1cn(CCCCCC(=O)Nc2ccc(-c3ccc(/N=N/c4ccc5c(S(=O)(=O)[O-])cc(S(=O)(=O)[O-])c(N)c5c4O)c(C)c3)cc2C)nn1)C(C)C.[Na+].[Na+] (some centres unmarked) [Example compound 12]", 25.1),
    ("CC[C@H](C)[C@@H]([C@@H](CC(=O)N1CCC[C@H]1[C@H](OC)[C@@H](C)C(=O)N[C@H](C)[C@@H](O)c1ccccc1)OC)N(C)C(=O)[C@@H](NC(=O)[C@H](C(C)C)[N+](C)(C)Cc1ccc(O[C@@H]2O[C@H](C(=O)[O-])[C@@H](O)[C@H](O)[C@H]2O)cc1OCc1cn(CCCOCC(=O)Nc2ccc(-c3ccc(/N=N/c4ccc5c(S(=O)(=O)[O-])cc(S(=O)(=O)[O-])c(N)c5c4O)c(C)c3)cc2C)nn1)C(C)C.[Na+].[Na+] [Example compound 10]", 24.7),
    ("CC[C@H](C)[C@@H]([C@@H](CC(=O)N1CCC[C@H]1[C@H](OC)[C@@H](C)C(=O)N[C@H](C)[C@@H](O)c1ccccc1)OC)N(C)C(=O)[C@@H](NC(=O)[C@H](C(C)C)[N+](C)(CC)Cc1ccc(O[C@@H]2O[C@H](C(=O)[O-])[C@@H](O)[C@H](O)[C@H]2O)cc1OCc1cn(CCCOCC(=O)Nc2ccc(-c3ccc(/N=N/c4ccc5c(S(=O)(=O)[O-])cc(S(=O)(=O)[O-])c(N)c5c4O)c(C)c3)cc2C)nn1)C(C)C.[Na+].[Na+] (some centres unmarked) [Example compound 11]", 25.7),
    ("CC[C@H](C)[C@@H]([C@@H](CC(=O)N1CCC[C@H]1[C@H](OC)[C@@H](C)C(=O)N[C@H](C)[C@@H](O)c1ccccc1)OC)N(C)C(=O)[C@@H](NC(=O)[C@H](C(C)C)[N+](C)(CC)Cc1ccc(O[C@@H]2O[C@H](C(=O)[O-])[C@@H](O)[C@H](O)[C@H]2O)cc1OCc1cn(CCOCCC(=O)Nc2ccc(-c3ccc(/N=N/c4ccc5c(S(=O)(=O)[O-])cc(S(=O)(=O)[O-])c(N)c5c4O)c(C)c3)cc2C)nn1)C(C)C.[Na+].[Na+] (some centres unmarked) [Example compound 8]", 24.1),
    ("CC[C@H](C)[C@@H]([C@@H](CC(=O)N1CCC[C@H]1[C@H](OC)[C@@H](C)C(=O)N[C@H](C)[C@@H](O)c1ccccc1)OC)N(C)C(=O)[C@@H](NC(=O)[C@H](C(C)C)[N+](C)(C)Cc1ccc(O[C@@H]2O[C@H](C(=O)[O-])[C@@H](O)[C@H](O)[C@H]2O)cc1OCc1cn(CCOCCC(=O)Nc2ccc(-c3ccc(/N=N/c4ccc5c(S(=O)(=O)[O-])cc(S(=O)(=O)[O-])c(N)c5c4O)c(C)c3)cc2C)nn1)C(C)C.[Na+].[Na+] [Example compound 9]", 25.8),
]
